Recorded values, source patent US6740635B2.

assay: in vitro
Measurement kind: CC50

The recorded CC50 for NC(=O)c1ncn([C@@H]2O[C@H](CO)[C@@H](O)[C@H]2O)n1 is > 100 µg/mL

====

assay: in vitro; details: Viral count or Plaque Reduction (CC50), parallel to RSV A2 viral count; Table 5
Measurement kind: CC50

The recorded CC50 for NC(=O)c1ncn([C@@H]2O[C@H](CO)[C@@H](O)[C@H]2O)n1 [Ribavirin] is > 1000 µg/mL

====

test: in vitro; settings: mouse
Measurement kind: CC50

The recorded CC50 for Nc1nc(O)c2ncn(COC(CO)CO)c2n1 is 0.5 µg/mL

====

assay: in vitro; conditions: CPE-inhibition (CC50), parallel to HIV-1 IIIB test; Table 5, Concentrations μM
Measurement kind: CC50 (µM)
One number for each entry, in µM.

The recorded CC50 for Cc1cn([C@H]2C[C@H](N=[N+]=[N-])[C@@H](CO)O2)c(=O)[nH]c1=O is 4.38
